- System: Fibroblast
- EXPERIMENT DESCRIPTION: Cytotoxicity against human fibroblast assessed as inhibition of cell growth after 72 hrs by resazurin based assay
pIC50: −log10 of the molar value.
ENDPOINT NAME: pIC50

The compound identified as `Nc1nc(NCc2ccccc2)nc2nc(-c3cc(O)cc(O)c3)nn12` registered its pIC50 at < 5.00

###

Below: a set of entries, each annotated with reported IC50.
- TARGET UNDER TEST: Casein kinase I isoform delta (Homo sapiens, UniProt P48730)
- EXPERIMENT DESCRIPTION: Inhibition of recombinant human N-terminal GST-tagged CK1delta (1 to 294 residues) using casein as substrate measured after 60 mins in presence of ATP by Kinase-Glo reagent-based luminescence assay
- Sequence (P48730 whole entry, the tested form may be a part, canonical isoform): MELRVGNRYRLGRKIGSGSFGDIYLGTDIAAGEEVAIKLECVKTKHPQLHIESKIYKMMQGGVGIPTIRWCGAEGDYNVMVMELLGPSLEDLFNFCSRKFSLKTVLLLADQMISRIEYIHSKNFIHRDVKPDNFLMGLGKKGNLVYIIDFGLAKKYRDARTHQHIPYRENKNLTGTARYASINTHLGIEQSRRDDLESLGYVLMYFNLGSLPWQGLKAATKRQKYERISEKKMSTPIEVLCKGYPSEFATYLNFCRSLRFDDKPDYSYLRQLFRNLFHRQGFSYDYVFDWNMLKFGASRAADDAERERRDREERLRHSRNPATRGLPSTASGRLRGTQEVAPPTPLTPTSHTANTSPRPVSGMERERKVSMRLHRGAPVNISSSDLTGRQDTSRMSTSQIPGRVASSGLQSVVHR
Mention the unit after the number when you answer.

Some compounds with recorded IC50:
CCOC(=O)c1cnc(N)n2nc(C3CCCC3)nc12    12300 nM
Nc1nc(NCc2ccc(Cl)cc2)nc2nc(-c3cc(O)cc(O)c3)nn12    750 nM
CCNC(=O)c1cnc(N)n2nc(-c3cccc(O)c3)nc12    320 nM
NCCNC(=O)c1cnc(N)n2nc(-c3cccc(O)c3)nc12    1260 nM

Looking up `Nc1nc(NCc2ccccc2)nc2nc(-c3ccc(O)cc3)nn12` , I see its IC50 listed as 1320 nM

Value of IC50 reported for the compound `CCOC(=O)c1cnc(N)n2nc(-c3cccc(O)c3)nc12` is 2060 nM

`CCOC(=O)c1cnc(N)n2nc(-c3cccc(OC)c3)nc12` has a reported IC50 of 25000 nM

What the record says about `Nc1nc(NCc2ccccc2)cc2nc(-c3cccc(O)c3)nn12` : IC50 is 300 nM

In plain terms, `CCNC(=O)c1cnc(N)n2nc(-c3cc(O)cc(O)c3)nc12` has a documented IC50 of 990 nM

IC50 reported for this compound `CCOC(=O)c1cnc(N)n2nc(-c3ccncc3)nc12` : 20200 nM

So, `CCOC(=O)c1cnc(N)n2nc(-c3cccc(F)c3)nc12` ? Its IC50 was 15200 nM

Record `Nc1nc(NCc2ccccc2)nc2nc(-c3ccc(O)c(O)c3)nn12` , field IC50: 910 nM

get_value(item= `CCOC(=O)c1cnc(N)n2nc(-c3cccc(N)c3)nc12` , readout=IC50) returns 16600 nM

Given item `Cc1cccc(CNc2nc(N)n3nc(-c4cc(O)cc(O)c4)nc3n2)c1` , the value recorded as its IC50 is 530 nM

Item: `CCOC(=O)c1cnc(N)n2nc(-c3cc(O)cc(O)c3)nc12` | IC50: 480 nM

The compound listed as `CCOC(=O)c1cnc(N)n2nc(C)nc12` shows IC50 equal to 15200 nM

Entry `CC(C)(C)OC(=O)NCCNC(=O)c1cnc(N)n2nc(-c3cc(O)cc(O)c3)nc12` , IC50 reported as 5320 nM

Record summary for `COc1cc(O)cc(-c2nc3nc(NC4CCCCC4)nc(N)n3n2)c1` : reported IC50 = 3300 nM

The reported IC50 of the compound `CCOC(=O)c1cnc(N)n2nc(-c3ccc(O)c(O)c3)nc12` was 4750 nM

Measured IC50 of `Nc1nc(NCc2ccccc2)nc2nc(-c3cccc(O)c3)nn12` : 460 nM

Per the record, `Nc1nc(NCc2ccccc2)nc2nc(-c3cc(O)cc(O)c3)nn12` has IC50 of 180 nM

Entry `CCOC(=O)c1cnc(N)n2nc(-c3ccccc3)nc12` ; IC50 = 8670 nM

IC50 reading for `Nc1nc(NCc2ccccc2)cc2nc(-c3cc(O)cc(O)c3)nn12` : 740 nM

For this compound ( `NCCNC(=O)c1cnc(N)n2nc(-c3cc(O)cc(O)c3)nc12` ), measured IC50 is 210 nM

###

- TARGET UNDER TEST: Casein kinase I isoform delta (Homo sapiens, UniProt P48730)
- EXPERIMENT DESCRIPTION: Inhibition of recombinant human N-terminal GST-tagged CK1delta (1 to 294 residues) at 40 uM using casein as substrate measured after 60 mins in presence of ATP by Kinase-Glo reagent-based luminescence assay relative to control
- Sequence (P48730 whole entry, looked up, the tested form may be a part, canonical isoform): as the sequence (P48730 whole entry, the tested form may be a part, canonical isoform) above
# binarize inhibition: threshold 10% inclusive, high side condition met, low side condition not met

Check out these entries, answers already filled in.
COc1cc(OC)cc(-c2nc3nc(NCc4ccccc4)nc(N)n3n2)c1    condition not met
CCOC(=O)c1cnc(NCc2ccc(-c3ccccc3)cc2)n2nc(-c3cccc(O)c3)nc12    condition not met
NCCNC(=O)c1cnc(N)n2nc(-c3cccc(O)c3)nc12    condition met

Task: Could you verify whether the entry `Oc1cccc(-c2nc3nc(NCc4ccccc4)nc(NCc4ccccc4)n3n2)c1` shows inhibition of no less than 10%?
Output: condition not met

Task: Does inhibition meet or surpass 10% for `CCOC(=O)c1cnc(NC)n2nc(-c3cccc(O)c3)nc12` ?
Output: condition not met

Task: API: above_or_equal(metric=inhibition, cutoff=10%) for item `CCOC(=O)c1cnc(NCc2ccc(OC)c(OC)c2)n2nc(-c3ccc(F)cc3)nc12`
Output: condition met

Task: Is reported inhibition greater than or equal to 10% here: `CCOC(=O)c1cnc(N)n2nc(-c3cccc([N+](=O)[O-])c3)nc12`
Output: condition met

Task: Reported inhibition at or above 10%? `COc1cc(OC)cc(-c2nc3cc(N(C)C)nc(N)n3n2)c1`
Output: condition met

Task: State whether the measured inhibition reaches 10%, counting equality as reaching it, for `CCNC(=O)c1cnc(N)n2nc(-c3cc(O)cc(O)c3)nc12`
Output: condition met

Task: Record `CCOC(=O)c1cnc(N)n2nc(-c3cccc(OC)c3)nc12` ; criterion: inhibition no lower than 10%. Met?
Output: condition met
